Values were extracted from patent US20040097421A1.

test system: H69AR (doxorubicin resistance subline); type: cell-based, human

# compound, IC50
rows = [
    ("CCOC(=O)[C@H](Cc1ccc(F)cc1)NC(=O)[C@@H](N)Cc1ccc(N(CCCl)CCCl)cc1.Cl [Example J1, hydrochloride]", "0.9 µM"),
]

----------
test system: U-1568 (non-small cell lung cancer); assay: cells; type: cell-based; conditions: Homo sapiens, read-out: IC50 (μM), U-1568

# molecule, operator, IC50 / µM
measured = [
    ("CC[C@@]1(O)C(=O)OCc2c1cc1n(c2=O)Cc2cc3c(CN(C)C)c(O)ccc3nc2-1", "=", 115),
    ("COc1cccc2c1C(=O)c1c(O)c3c(c(O)c1C2=O)C[C@@](O)(C(=O)CO)C[C@@H]3O[C@H]1C[C@H](N)[C@H](O)[C@H](C)O1", "≥", 183),
    ("CC(=O)O[C@@]12CO[C@@H]1C[C@H](O)[C@@]1(C)C(=O)[C@H](O)C3=C(C)[C@@H](OC(=O)[C@H](O)[C@@H](NC(=O)OC(C)(C)C)c4ccccc4)C[C@@](O)([C@@H](OC(=O)c4ccccc4)[C@H]21)C3(C)C", "=", 5.94),
]
